test system: MAC16 cells; assay: Inhibition of the growth of MAC16 cells in vitro; assay type: cell-based, murine; settings: Mus musculus, tissue culture
quantity: IC50 (nM)
One number for each entry, in nM.

Enquiry: # lookup: IC50 of CC1=C(C)C(=O)C(Cc2cccnc2)=C(C)C1=O
Return: 3000

Just for reference, paper PMC2074783 is where these values come from.
